assay: chemical genetic growth profiling, strain panel (AID 1159580);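 also: tested at 20 µM; growth read once vehicle control cultures reached saturation at 30 °C; 1 = growth at the plate median or of vehicle wells; lower values mean less growth of the strain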; conditions: S. cerevisiae deletion strains, growth OD, locus YAL030W, strain snc1, hits give low values
About 2,000 (36%) of roughly 5,500 compounds were called active. Inconclusive results (about 18%) are left out. Some of the results follow.
Quantity Measured: normalized growth
Answer field: number only, no words.

Solved entries:
Compound: CC(=O)[O][Hg][c]1ccccc1
normalized growth: 0.0569

Compound: COc1ccc(C(=O)c2ccc(O)cc2)c(O)c1O
normalized growth: 0.967

Compound: C1CCC(C(CC2CCCCN2)C2CCCCC2)CC1 (stereo not given)
normalized growth: 0.986

Compound: CCOc1ccc(C(=O)c2cc(O)c(OC)c(OC)c2O)cc1
normalized growth: 0.993

Compound: COC(=O)[C@]1(C)CC[C@]2(C)CC[C@]3(C)C4=CC=C5C(=CC(=O)C(O)=C5C)[C@]4(C)CC[C@@]3(C)[C@@H]2C1
normalized growth: 0.823

Compound: CC[C@H]1OC(=O)[C@H](C)[C@@H](O[C@H]2C[C@@](C)(OC)[C@@H](O)[C@H](C)O2)[C@H](C)[C@@H](O[C@@H]2O[C@H](C)C[C@H](N(C)C)[C@H]2O)[C@](C)(O)C[C@@H](C)[C@@H]2N[C@@H](COCCOC)O[C@H]([C@H]2C)[C@]1(C)O
normalized growth: 0.999

Compound: COc1ccc([C@H]2COc3c(ccc(O)c3OC)C2)c(OC)c1O
normalized growth: 0.992

Compound: O=C(NC1CCCCC1)NC1CCCCC1
normalized growth: 0.976

Compound: O=C(CCBr)N1CCN(C(=O)CCBr)CC1
normalized growth: 1.02

Compound: CN1C(=O)CCS(=O)(=O)C1c1ccc(Cl)cc1 (stereo not given)
normalized growth: 0.992

Would you kindly share the measured normalized growth for COc1ccc2c(=O)ccoc2c1 ?
1.01

Would you kindly share the measured normalized growth for CO[C@@]1(NC(=O)Cc2cccs2)C(=O)N2C(C(=O)O)=C(COC(N)=O)CS[C@@H]21 ?
0.982

Would you kindly share the measured normalized growth for COc1ccc(C(=O)c2ccccc2)c(O)c1O ?
0.974

Would you kindly share the measured normalized growth for CC(=O)Oc1cc2c(c(C)c1OC(C)=O)CC1OC13C2(C)CCC1(C)C2CC(C)(C(=O)O)CCC2(C)CCC13C (stereo not given) ?
1.01

Would you kindly share the measured normalized growth for COc1cc2c(cc1OC)[C@@H]1C(=O)c3ccc4c(c3O[C@@H]1CO2)CC(C(C)C)O4 (stereo not given in full) ?
0.998

Would you kindly share the measured normalized growth for CC(=O)O[C@@H]1CC[C@]2(C)C3CC[C@]4(C)C(=O)CCC4C3CC[C@H]2C1 (stereo not given in full) ?
1.01

Would you kindly share the measured normalized growth for C[C@]12CCC3C(CC[C@H]4C[C@H](OS(=O)(=O)O)CC[C@]34C)C1CCC2=O (stereo not given in full) ?
1.05

Would you kindly share the measured normalized growth for COc1c2ccoc2cc2oc(C)cc(=O)c12 ?
0.987

Would you kindly share the measured normalized growth for CC[C@H]1CN2CCc3cc(OC)c(OC)cc3C2C[C@@H]1CC1NCCc2cc(OC)c(OC)cc21 (stereo not given in full) ?
0.983

Would you kindly share the measured normalized growth for CC(=O)Oc1cccc2c1C(=O)c1c(OC(C)=O)cc(C(=O)O)cc1C2=O ?
0.93

###

assay: chemical genetic growth profiling, strain panel (AID 1159580); settings: S. cerevisiae deletion strains, growth OD, locus YJL134W, strain LCB3
In all, about 5,500 compounds went through this assay and about 2,000 (36%) were called active. Inconclusive results (about 18%) are left out. No stated cut-off is given here; in the data, active means normalized growth mostly below about 0.91 (no sharp cut-off); inconclusive means no clear call, values can overlap the other calls; inactive means mostly above about 0.92. This is one part of the list.
# valid calls are active, inactive; nothing else

Past entries and their recorded results:
Compound: NC(=O)NO
Class: inactive

Compound: CN1C(=O)CCS(=O)(=O)C1c1ccc(Cl)cc1 (configuration not stated)
Class: inactive

Compound: CC1=C(O)C(=O)C=C2C1=CC=C1[C@@]2(C)CC[C@@]2(C)[C@@H]3C[C@](C)(C(=O)O)CC[C@]3(C)CC[C@]12C
Class: active

Compound: CC(=O)NO
Class: inactive

Compound: O=C(O)c1cc(=O)c2c(Cl)cc(Cl)cc2[nH]1
Class: inactive

Compound: CCOC([O-])=Nc1c[n+](N2CCOCC2)no1
Class: inactive

Recorded call for CNC(Cc1c[nH]c2ccccc12)C(=O)O (configuration not stated) ?
inactive

Recorded call for CC1(C)C=Cc2cc3ccc(=O)oc3cc2O1 ?
inactive

###

assay: chemical genetic growth profiling, strain panel (AID 1159580);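 also: tested at 20 µM; growth read once vehicle control cultures reached saturation at 30 °C; 1 = growth at the plate median or of vehicle wells; lower values mean less growth of the strain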; details: S. cerevisiae deletion strains, growth OD, locus YKL160W, strain elf1, hits give low values
About 2,000 (36%) of roughly 5,500 compounds were called active. About 18% were inconclusive and are not listed. This is one part of the list.
Reported normalized growth by item:
Answer field: number only, no words.

Solved entries:
Compound: CC(=O)OCC(=O)[C@@]12OC3(CCCC3)O[C@@H]1CC1C3CCC4=CC(=O)C=C[C@]4(C)[C@@]3(F)[C@@H](O)C[C@@]12C (some centres undefined)
normalized growth: 1.01
--
Compound: C#CC1(O)CCC2C3CCC4=CC(=O)CCC4(C)C3CCC21C (centres undefined)
normalized growth: 0.979
--
Compound: CC1(C)S[C@@H]2[C@H](NC(=O)Cc3ccccc3)C(=O)N2[C@H]1C(=O)O
normalized growth: 1.01

Moving on to the next compound.
Would you kindly share the measured normalized growth for Cc1onc(-c2c(Cl)cccc2Cl)c1C(=O)N[C@@H]1C(=O)N2[C@@H]1SC(C)(C)[C@@H]2C(=O)O ?
0.982

###

test: chemical genetic growth profiling, strain panel (AID 1159580);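 also: tested at 20 µM; growth read once vehicle control cultures reached saturation at 30 °C; 1 = growth at the plate median or of vehicle wells; lower values mean less growth of the strain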; settings: S. cerevisiae deletion strains, growth OD, locus YOL006C, strain TOP1, hits give low values
The whole screen tested about 5,500 compounds, of which about 2,000 (36%) were called active. Another 18% or so got no clear call; they are omitted. Some of the results follow.
For each record, check the reported normalized growth: if it is below 1 write true (1), else write false (0).

Past entries and their recorded results:
Cpd Smiles: NCCc1c[nH]c2ccccc12
Class: false (0)
--
Cpd Smiles: Cc1cc(=O)n(-c2ccccc2)n1C
Class: true (1)
--
Cpd Smiles: O=C(O)c1cc([N+](=O)[O-])ccc1NCCCc1ccccc1
Class: false (0)
--
Cpd Smiles: CCOC([O-])=Nc1c[n+](N2CCOCC2)no1
Class: false (0)
--
Cpd Smiles: CCOc1cccc(C(=O)c2ccc(O)c(O)c2O)c1
Class: true (1)
--
Cpd Smiles: Cc1ccc(-c2nn(-c3ccccc3)c(=O)c3ccccc23)cc1C
Class: true (1)
--
Cpd Smiles: CN(C)CCc1c[nH]c2ccc(CS(=O)(=O)N3CCCC3)cc12
Class: true (1)

We next turn to a different molecule, shown below.
Item O=C(O)[C@H](O)[C@@](O)(Cc1ccc(O)cc1)C(=O)O : normalized growth beneath 1, strictly?
false (0)

###

assay: chemical genetic growth profiling, strain panel (AID 1159580);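 also: tested at 20 µM; growth read once vehicle control cultures reached saturation at 30 °C; 1 = growth at the plate median or of vehicle wells; lower values mean less growth of the strain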; details: S. cerevisiae deletion strains, growth OD, locus YCL069W, strain vba3
Hit rate of the full screen: of about 5,500 compounds, about 2,000 (36%) were called active. Another 18% or so got no clear call; they are omitted. Cut-off read from the data, not from the text of the source: active = normalized growth mostly below about 0.91 (no sharp cut-off); inconclusive = no clear call, values can overlap the other calls; inactive = mostly above about 0.92. The list shows a part of the results. Where a SMILES comes first, the peptide text is derived from it. Side-chain parts run from the residue outwards. [ ]: non-standard residue; d: D form. The star is where a group is joined. X1 = CCC(C)C(N)C1=NC(C(=O)*)CS1; Orn = NCCC[CH](N)C(=O)O
# valid calls are YES = active, NO = inactive; nothing else

Recorded call for CCC(C)C(N)C1=NC(C(=O)NC(CC(C)C)C(=O)NC(CCC(=O)O)C(=O)NC(C(=O)NCCCCC2NC(=O)C(CC(N)=O)NC(=O)C(CC(=O)O)NC(=O)C(Cc3cnc[nH]3)NC(=O)C(Cc3ccccc3)NC(=O)C(C(C)CC)NC(=O)C(CCCN)NC2=O)C(C)CC)CS1 (stereo not drawn) (cyclo(DNK([Ile-Glu-Leu-X1])[Orn]IFH); configuration not given here) ?
NO

Recorded call for Cc1ccc(N(CC2=NCCN2)c2cccc(O)c2)cc1 ?
NO

Recorded call for O=C(NC1CCCCC1)NC1CCCCC1 ?
NO

Recorded call for COc1cc(O)cc(OC)c1OC ?
NO

Recorded call for CCC1(CC)C(=O)C=CNC1=O ?
NO

Recorded call for CO[C@@]1(NC(=O)Cc2cccs2)C(=O)N2C(C(=O)O)=C(COC(N)=O)CS[C@@H]21 ?
NO

Recorded call for O=C(O)c1cc(=O)c2cccc(O)c2[nH]1 ?
NO

Recorded call for CCCCCCCCCCCCCCCCCCOCC(O)CO (stereo unspecified) ?
NO

Recorded call for COc1cc(/C=C/C(=O)N2CCC=CC2=O)cc(OC)c1OC ?
NO

Recorded call for COc1cc2c(cc1OC)[C@@H]1C(=O)c3ccc4c(c3O[C@@H]1CO2)CC(C(C)C)O4 (stereo partly specified) ?
NO

Recorded call for COc1c2ccoc2cc2oc(C)cc(=O)c12 ?
NO

Recorded call for COc1c2occc2c(OC)c2c(=O)cc(C)oc12 ?
NO

Recorded call for CC(=O)Oc1cccc2c1C(=O)c1c(OC(C)=O)cc(C(=O)O)cc1C2=O ?
NO

Recorded call for C=C(C)[C@H]1Cc2c(ccc3c2O[C@@H]2COc4cc(OC)c(OC)cc4[C@@H]2C3=O)O1 ?
NO

Recorded call for O=C(O)c1cc(=O)c2c(Cl)cc(Cl)cc2[nH]1 ?
NO
